System: HCC-2998 colon
TEST_NAME: NCI-60 one-dose screen, 48 h (100 = growth as untreated, 0 = no growth, -100 = all killed)
TEST_CONDITIONS: 10 µM unless noted
About 83,000 compounds went through this panel and 20% of them were active in at least one assay; those are over-represented in the sample as a whole. The source made the active and inactive calls. Rule for the calls: active = growth percent below 10; inactive = the rest.
Each item that follows carries a reported growth.

CC[C@H](C)C(=O)O[C@H]1C[C@@H](C)C=C2C=C[C@H](C)[C@H](CC[C@@H]3C[C@@H](O)CC(=O)O3)[C@H]21    97.5% (inactive)
Cc1nn(-c2ccccc2)c2ncc3c(c12)C(=O)N(Cc1ccccc1)C3=O    63% (inactive)
O=C(/C=C/c1ccccc1Cl)c1ccc(O)cc1    113% (inactive)

Lab note: next molecule to report on.
Task item: Bench note: what growth did O=C1/C(=C/c2ccc([N+](=O)[O-])o2)Oc2ccc(Br)cc21 show?
Reply: 102% (inactive)

---

System: ACHN renal
TEST_NAME: NCI-60 one-dose screen, 48 h (100 = growth as untreated, 0 = no growth, -100 = all killed)
TEST_CONDITIONS: 10 µM unless noted
The panel holds about 83,000 compounds, 20% with a hit somewhere; the sample as a whole holds those more often.
MEASUREMENT_TYPE: growth (%)
Supply the numeric figure in %, leaving out any unit text.

Previously resolved entries follow.
COc1ccc(C(=O)C(C)Br)cc1OC (centres undefined)    80.3
CN(C)c1ccc2[nH]c3c(C(N)=O)cc(=O)c(=O)c=3oc2c1    29.7
CCOC(=O)/C(=C/c1ccccc1)C(=O)c1ccccc1    70.5
CN(C(=O)c1ccccc1)N(C)C(=O)c1ccccc1    106
COc1cc(/C=C/C(=O)Nc2cccnc2Nc2cc(OC)c(OC)c(OC)c2)cc(OC)c1OC    96.5

Lab note: next compound to report on.
Task item: Bench note: what growth did CC(c1ccccn1)C(C)(O)C(C)c1ccccn1 (centres undefined) show?
Reply: 103

---

Tested on: MDA-MB-435 melanoma
TEST_NAME: NCI-60 one-dose screen, 48 h (100 = growth as untreated, 0 = no growth, -100 = all killed)
TEST_CONDITIONS: 10 µM unless noted
About 83,000 compounds went through this panel and 20% of them were active in at least one assay; those are over-represented in the sample as a whole. Active and inactive are the calls of the source. How the source made its calls: active means growth percent below 10; inactive means the rest.
MEASUREMENT_TYPE: growth

O=C(C(Br)Br)C(Br)C(Br)c1ccccc1 (stereo not drawn)    82.3% (inactive)

Task item: Bench note: what growth did Nc1ccc(C2=Nc3cccc4cccc(c34)S2)cc1 show?
Reply: 98.3% (inactive)

Task item: Bench note: what growth did C/C(=N/N=C(N)N)c1ccc(N)cc1 show?
Reply: 49% (inactive)

---

Test system: M14 melanoma
TEST_NAME: NCI-60 one-dose screen, 48 h (100 = growth as untreated, 0 = no growth, -100 = all killed)
TEST_CONDITIONS: 10 µM unless noted
The panel holds about 83,000 compounds, 20% with a hit somewhere; the sample as a whole holds those more often.
Each item that follows carries a reported growth.
Supply the numeric figure in %, leaving out any unit text.

Previously resolved entries follow.
OC(Cc1cccnc1)c1ccccc1 (stereo not drawn)    106
O=C(Nc1nc(-c2ccccc2)cs1)c1cc(O)c(O)c(O)c1    54.4
O=C(OCCBr)c1ccc(Cl)c([N+](=O)[O-])c1    91.8
O=C(Nc1ccc(OCc2nnc(-c3ccccc3)o2)c(F)c1)Nc1ccc(Cl)c(C(F)(F)F)c1    23.8
O=C(NN(C(=O)c1ccccc1)c1cccs1)c1ccccc1    101

Task item: Bench note: what growth did Cc1cc(O)c2c(c1)C[C@H]1[C@@H]3CC[C@H]4CC(=O)CC[C@]4(C)[C@H]3CC(=O)[C@]21C show?
Reply: 80.9

Task item: Bench note: what growth did CCCCCCCCCCCCCCCCN=C(CC(=O)O)C(=O)O show?
Reply: 95.8

Task item: Bench note: what growth did Cc1cccc(Cl)c1NC(=O)c1ccc2nc(NC(=O)NC3CC(C)(C)NC(C)(C)C3)sc2c1 show?
Reply: 93.6

Task item: Bench note: what growth did CCOC(=O)c1c2c(c(C)n1Cc1ccc(OC)cc1)-c1nc(N)ncc1CC2 show?
Reply: 106

Task item: Bench note: what growth did Cc1c(C(N)=O)sc2c1c(=O)n(Cc1ccccc1)c1nnc(SCC(=O)Nc3ccc(Cl)cc3)n21 show?
Reply: 40.5

Task item: Bench note: what growth did O=C(/C=C/c1cccnc1)NCCCCC1CCCN(C(=O)c2ccccc2)C1 (stereo not drawn) show?
Reply: 18.7

Task item: Bench note: what growth did CC(O)c1nc2c(c(=O)n(C)c(=O)n2C)n1C (stereo not drawn) show?
Reply: 95.6

Task item: Bench note: what growth did COc1ccc2nc3cc(Cl)ccc3c(Nc3cc(C(C)C)c(O)cc3C)c2c1 show?
Reply: 56.2

Task item: Bench note: what growth did Cc1cc(=O)n2n1-c1ccc(Cl)cc1NC(=O)C2 show?
Reply: 115

Task item: Bench note: what growth did Cc1ccc(NC(=O)COC(=O)c2ccc(S(=O)(=O)N3CCCCCC3)cc2)cc1 show?
Reply: 126
